B1: CPEB3 Ribozyme (parent)
chain: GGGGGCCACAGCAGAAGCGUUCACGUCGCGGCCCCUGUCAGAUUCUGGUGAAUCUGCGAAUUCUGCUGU

- Variants of: B1
- experiment-notes: self-cleavage, relative activity (ratio to wild type); higher = more cleavage; co-transcriptional
measure-name: self-cleavage

1) C32G U43C    0.364
2) A23G C39G    0.888
3) A16C G17U    0.127
4) A40C G65C    0.332
5) A42U G47C    0.993
6) G3A A16U    0.185
7) U26A U44A    0.843
8) C32A A40C    0.321
9) U20A C29A    0.194
10) C24U A42U    0.654
11) G25A    0.202
12) C32G G48U    0.562
13) C34G    0.74
14) G3A A10U    0.889
15) A15C A52G    0.98
16) C34U A60G    0.789
17) G1C A51U    0.192
18) G17C G19U    0.0627
19) G5U G48C    0.327
20) G2A C35G    0.0841
21) G31A C39G    0.733
22) A16C G19U    0.137
